Entry source: ChEMBL document CHEMBL3885881

species on record: Rattus norvegicus; experiment: DrugMatrix - Regimen: Daily Repeat; type: toxicity, organism-based, Sprague-Dawley; parameters: regimen Daily Repeat, gender Male, age 6-8 weeks; settings: in vivo, po, 0 mg/kg, 72 h, tissue Plasma, route oral GAVAGE, dose level Control, time 3 day, vehicle .5 % CMC
Attribute: GLUCOSE
Reported Property: GLUCOSE (mg/dL)

• COc1ccc2c(c1OC)C(=O)O[C@@H]2[C@H]1c2c(cc3c(c2OC)OCO3)CCN1C = 193.67
• CCCNC(=O)NS(=O)(=O)c1ccc(Cl)cc1 [CHLORPROPAMIDE] = 185.17
• C#C[C@]1(O)CC[C@H]2[C@@H]3CCC4=CC(=O)CC[C@]4(C)[C@H]3CC[C@@]21C = 193.67
